Ref: paper PMC8348221

Provide the reported pKd of each item.
Molecular target: T1, Tks4 SH3_(1)–SH3_(2) tandem SH3 fragment (residues 155–279) (human, UniProt A1X283 155-279, NT-647 amine-reactive dye (in the MST only))
T1 construct: human Tks4 (SH3PXD2B), residues 155-279: first and second SH3 domains with their linker; The vector has a TEV site after the His-tag; Unlabelled in the tryptophan fluorescence titrations; source: E. coli Rosetta pLysS, purified
T1 sequence (looked up): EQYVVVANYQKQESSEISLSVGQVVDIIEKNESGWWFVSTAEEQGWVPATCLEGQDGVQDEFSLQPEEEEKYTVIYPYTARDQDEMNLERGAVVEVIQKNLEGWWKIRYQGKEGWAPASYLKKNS
Test: other fluorescence titration; intrinsic tryptophan fluorescence (excitation 295 nm, followed at 340 nm); SH3_(1)–SH3_(2) constant at 5 µM, PRR fragments 1.8–100 µM; PBS, 0.5 mM TCEP, 0.05% TWEEN 20; 1:1 binding model
Details: both partners purified
Reminder that pKd is minus the log10 of a molar concentration.

# query: pKd of entry GSHMGDAKQRSPKMRQRPPPRRDMTIPRGLNLPKPPIPPQVE (domain or fragment, human, four N-terminal residues that are cloning artifacts; human Tks4 (SH3PXD2B), residues 333-370: proline-rich region with the PTAM (PPPRR) and the PKPPIPP motif; also called wild type PRRL; not shown: His-tag, N-terminal, cleaved) [Tks4 PRRL fragment (residues 333–370)]
4.96

Entry GSHMGDAKQRSPKMRQRPPPRRDMEIPRGLNLPKPPIPPQVE (domain or fragment, human, four N-terminal residues that are cloning artifacts; human Tks4 (SH3PXD2B), residues 333-370 with the phosphomimetic Thr-to-Glu mutation T353E; not shown: His-tag, N-terminal, cleaved) [Tks4 PRRL^T353E phosphomimetic mutant fragment] please
5.00

Entry KMRQRPPPRRDMTIPRG (human Tks4 (SH3PXD2B), truncated version of PRRL containing only the PTAM; source: synthetic peptide (Fmoc/tBu SPPS, RP-HPLC purified)) [Tks4 PRRS peptide] please
4.92
